- testSystem: UniProt Q16654
- Sequence (Q16654 whole entry): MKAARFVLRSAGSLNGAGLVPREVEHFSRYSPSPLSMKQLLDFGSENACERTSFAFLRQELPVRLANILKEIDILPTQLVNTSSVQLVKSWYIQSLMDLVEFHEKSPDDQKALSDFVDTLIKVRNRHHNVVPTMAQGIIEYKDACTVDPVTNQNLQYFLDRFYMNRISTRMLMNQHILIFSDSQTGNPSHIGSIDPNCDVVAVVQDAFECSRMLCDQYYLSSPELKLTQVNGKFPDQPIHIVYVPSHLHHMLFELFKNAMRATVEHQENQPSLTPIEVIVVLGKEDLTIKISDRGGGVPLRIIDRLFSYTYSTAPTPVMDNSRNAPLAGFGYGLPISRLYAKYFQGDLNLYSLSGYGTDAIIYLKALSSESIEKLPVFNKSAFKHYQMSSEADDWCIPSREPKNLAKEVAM
parameter: pIC50
Just so you know, pIC50 here is -log10 of the concentration in molar units; reply with that number alone.

Need pIC50 of CCCCC(=O)N(Cc1ccc(-c2ccccc2-c2nnn[nH]2)cc1)[C@H](C(=O)O)C(C)C , thanks.
4.11

* * *

- testSystem: human BCKDK (Homo sapiens)
- assayText: BCKDK biochemical assay
- runConditions: in vitro biochemical activity
parameter: pIC50
Just so you know, pIC50 here is -log10 of the concentration in molar units; reply with that number alone.

compound	testSystem	pIC50
CCC1CN(Cc2ccc(-c3ccccc3-c3nnn[nH]3)cc2)c2ncccc2O1 (racemic) [racemic]	human BCKDK (Homo sapiens)	7.96

Need pIC50 of CCC1CN(Cc2ccc(-c3ccccc3-c3nnn[nH]3)cc2)c2ncccc2O1 (centres unmarked) [compound 1∗] , thanks.
7.49

FYI, the data here is from paper PMC9976451.
